Biological target: UniProt Q9GZQ6
Sequence (Q9GZQ6 whole entry): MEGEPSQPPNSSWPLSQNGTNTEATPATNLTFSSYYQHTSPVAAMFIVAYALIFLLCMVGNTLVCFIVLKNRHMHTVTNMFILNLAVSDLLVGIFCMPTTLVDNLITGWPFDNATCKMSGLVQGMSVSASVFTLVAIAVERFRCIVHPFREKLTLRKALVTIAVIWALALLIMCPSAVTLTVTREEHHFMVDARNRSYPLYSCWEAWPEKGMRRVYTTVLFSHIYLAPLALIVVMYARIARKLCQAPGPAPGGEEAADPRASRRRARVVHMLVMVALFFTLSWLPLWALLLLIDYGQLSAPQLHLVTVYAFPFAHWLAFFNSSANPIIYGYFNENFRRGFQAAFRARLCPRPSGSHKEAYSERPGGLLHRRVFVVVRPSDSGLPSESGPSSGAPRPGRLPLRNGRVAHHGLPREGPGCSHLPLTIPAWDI
Test: Displacement of [125I]-1DMeNPFF from recombinant human NPFF1 receptor expressed in CHO cells by TopCount scintillation counting method
measured parameter: pKi
Just the number, please; pKi means minus log10 of the concentration in mol/L.

Solved entries:
**Query** Requested field: pKi. Item: N=C(N)NCCC[C@@H](NC(=O)C=C(c1ccccc1)c1ccccc1)C(=O)N[C@H](Cc1c[nH]c2ccccc12)C(N)=O
**Result** 8.20

**Query** And the next one, N=C(N)NCCC[C@@H](NC(=O)/C=C/c1ccccc1)C(=O)N[C@@H](Cc1ccccc1)C(N)=O ?
**Result** 8.14

**Query** Likewise for N=C(N)NCCC[C@@H](NC(=O)C=C(c1ccccc1)c1ccccc1)C(=O)N[C@H](Cc1ccccc1)C(N)=O ?
**Result** 8.14

Further cases:
**Query** Recorded pKi for N=C(N)NCCC[C@@H](NC(=O)C=C(c1ccccc1)c1ccccc1)C(=O)N[C@@H](Cc1ccc(O)cc1)C(N)=O , please?
**Result** 7.49

**Query** Likewise for N=C(N)NCCC[C@@H](NC(=O)C=C(c1ccccc1)c1ccccc1)C(=O)N[C@@H](Cc1ccccc1Br)C(N)=O ?
**Result** 9.14

**Query** What do we get for NC(=O)[C@H](Cc1ccccc1)NC(=O)[C@H](CCCN=C(N)N)NC(=O)C12CC3CC(CC(C3)C1)C2 ?
**Result** 7.85

**Query** One more molecule: N=C(N)NCCC[C@@H](NC(=O)C=C(c1ccccc1)c1ccccc1)C(=O)N[C@@H](Cc1ccccc1)C(N)=O
**Result** 8.37

**Query** Cool, now N=C(N)NCCC[C@@H](NC(=O)C(c1ccccc1)c1ccccc1)C(=O)N[C@@H](C(N)=O)c1ccccc1
**Result** 7.24

* * *

Target: Neuropeptide FF receptor 2 (Homo sapiens)
Sequence (Q9Y5X5 whole entry): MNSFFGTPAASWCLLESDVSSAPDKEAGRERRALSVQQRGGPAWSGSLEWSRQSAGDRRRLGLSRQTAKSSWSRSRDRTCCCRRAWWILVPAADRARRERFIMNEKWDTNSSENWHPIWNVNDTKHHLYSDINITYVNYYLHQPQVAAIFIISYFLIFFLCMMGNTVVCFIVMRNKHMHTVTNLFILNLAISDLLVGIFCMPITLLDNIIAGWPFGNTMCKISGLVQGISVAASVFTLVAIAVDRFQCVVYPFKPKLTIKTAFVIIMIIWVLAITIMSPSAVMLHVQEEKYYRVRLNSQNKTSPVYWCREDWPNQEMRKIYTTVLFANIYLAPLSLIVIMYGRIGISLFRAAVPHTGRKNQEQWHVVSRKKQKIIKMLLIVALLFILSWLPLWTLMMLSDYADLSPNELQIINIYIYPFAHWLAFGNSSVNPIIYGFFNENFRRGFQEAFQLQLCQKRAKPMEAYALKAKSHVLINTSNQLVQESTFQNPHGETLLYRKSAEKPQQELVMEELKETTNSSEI
Assay: Displacement of [125I]-1DMeNPFF from recombinant human NPFF2 receptor expressed in CHO cells by TopCount scintillation counting method
measured parameter: pKi
# pKi = -log10(concentration in molar units)

Some solved cases for reference:
**Query** Entry under review: N=C(N)NCCC[C@@H](NC(=O)C=C(c1ccccc1)c1ccccc1)C(=O)N[C@@H](Cc1ccccc1)C(N)=O . Reported pKi?
**Result** 6.69

**Query** Item: NC(=O)[C@H](Cc1ccccc1)NC(=O)[C@H](CCCN=C(N)N)NC(=O)C12CC3CC(CC(C3)C1)C2
**Result** 7.74

**Query** Please give the result for CC(C)C[C@H](NC(=O)[C@@H](CCCNC(=N)N)NC(=O)C=C(c1ccccc1)c1ccccc1)C(N)=O too.
**Result** 5.66

***
**Query** What value of pKi has been recorded for this entry: N=C(N)NCCC[C@@H](NC(=O)/C=C/c1ccccc1)C(=O)N[C@H](Cc1ccccc1)C(N)=O
**Result** 5.67

**Query** Same question for N=C(N)NCCC[C@@H](NC(=O)C=C(c1ccccc1)c1ccccc1)C(=O)N[C@@H](Cc1c[nH]c2ccccc12)C(N)=O please.
**Result** 6.82

**Query** Proceed to C[C@@H](NC(=O)[C@@H](CCCNC(=N)N)NC(=O)C=C(c1ccccc1)c1ccccc1)C(N)=O
**Result** 6.25

**Query** Note, next up: N=C(N)NCCC[C@@H](NC(=O)C=C(c1ccccc1)c1ccccc1)C(=O)N[C@H](Cc1ccccc1)C(N)=O
**Result** 6.14

**Query** Now the same for N=C(N)NCCC[C@@H](NC(=O)C=C(c1ccccc1)c1ccccc1)C(=O)N[C@@H](CCC(N)=O)C(N)=O
**Result** 5.76

**Query** Another compound to check: N=C(N)NCCC[C@@H](NC(=O)C=C(c1ccccc1)c1ccccc1)C(=O)N[C@@H](CC(N)=O)C(N)=O
**Result** 5.32

**Query** Same read-out for C[C@H](NC(=O)[C@@H](CCCNC(=N)N)NC(=O)C=C(c1ccccc1)c1ccccc1)C(N)=O ?
**Result** 5.22
